# System: SF-295 CNS
# assayExplanation: NCI tumour cell line growth inhibition, 48 h
measuredQuantity: TGI

Solved cases below.
Per the records, this compound ( "Cc1cc2c(cc1Cl)SC(N(c1ccccc1Cl)S(=O)(=O)c1ccc(Br)s1)=NS2(=O)=O" ) has TGI equal to > 100 µM

Entry under test: "[N-]=[N+]=CC(=O)C1(C(=O)C=[N+]=[N-])CC1" . Its TGI was > 100 µM

The compound "Cc1ccc2nc(N)[nH]c(=O)c2c1Sc1ccncc1" showed TGI equal to > 100 µM

TGI reported for this compound "N#CCc1c(F)c(F)c(F)c(F)c1F" : > 100 µM

Now look at this entry.
Looking up CC1(CO)C(O)CCC2(C)C1CCC1CC3CC12CCC3(O)CO (stereo not given) , I found its TGI recorded as > 100 µM

###

# Test system: RXF 393 renal
# assayExplanation: NCI tumour cell line growth inhibition, 48 h
measuredQuantity: TGI

Some entries whose results are on file:
Observed TGI on RXF 393 renal, entry "C/C(=N\Nc1ccccc1)c1sc(-c2nc(C)c(/C(C)=N/Nc3ccccc3)s2)nc1C" , equals > 87.9 µM

Lab entry: RXF 393 renal assay, compound "c1ccc(CN2CCC(=NN3CCCCC3)CC2)cc1" , TGI = > 100 µM

Measured on RXF 393 renal, COC(=O)C(=O)C(CC(=O)Nc1cc(Cl)ccc1Cl)C(=O)OC (stereo not given) has a documented TGI of > 100 µM

Value (TGI, RXF 393 renal) for record "[N-]=[N+]=CC(=O)C1(C(=O)C=[N+]=[N-])CC1" = > 100 µM

Switching to the query record.
Noted TGI for CC(C)C[S+]1C2=C([O-])CC(C)(C)CC2=Nc2ccccc21 (stereo not given) , tested on RXF 393 renal: > 100 µM

###

# System: IGROV1 ovarian
# assayExplanation: NCI tumour cell line growth inhibition, 48 h
measuredQuantity: TGI

Summary for this compound, "Nc1n[n+]([O-])c2cc([N+](=O)[O-])ccc2[n+]1[O-]" : TGI is 13.2 µM

For "O=c1cc(-c2ccc(Cl)cc2)[nH]c2ccccc12" the compound record lists TGI as > 100 µM

Summary for this compound, "Cc1ccc2c(c1)[n+](=O)c(C(=O)c1cccs1)c(C(F)(F)F)n2[O-]" : TGI is 0.332 µM

Looking up "C=C1CC[C@@]2(C)[C@@H]([C@@H]1C)[C@H]1CC[C@@H]3[C@@]4(C)CC[C@H](O)C(C)(C)[C@@H]4CC[C@@]3(C)[C@]1(C)C[C@@H]2O" , I found its TGI recorded as 3.77 µM

What the record says about "O=c1oc2cc(O)ccc2c2[nH]c3cc(O)ccc3c12" : TGI is 57.9 µM

I have 3 compounds here; please give me TGI for each one.
1. CCOC(=O)C1(CC(=O)O)CCCC1=O (stereo unspecified)
2. Cc1noc2cccc(O)c12
3. COc1ccccc1C1C2=C(COC2=O)Oc2cc3c(cc21)OCO3 (stereo unspecified)

RESULT:
1. > 100 µM
2. > 100 µM
3. > 100 µM

# per-item lookup of TGI; items listed below
1. COc1cc(C2CC(C)(N3CCOCC3)Oc3cc4c(cc32)OCO4)cc(OC)c1OC (stereo unspecified)
2. C[C@@H](C1CC[C@H]2[C@@H]3[C@@H]4O[C@@H]4[C@@]4(O)CC=CC(=O)[C@]4(C)[C@H]3C[C@H](O)[C@]12C)[C@H]1C[C@]2(C)O[C@]2(C)C(=O)O1 (stereo partly specified)
3. CC12Nc3ccccc3C1=C(c1ccccc1)CC1C(=O)OC(=O)C12 (stereo unspecified)
4. Clc1ccc(Nc2ncco2)cc1Cl
5. CCOC(=O)/C=C/n1c2ccccc2c(=O)c2cc(OC)ccc21

RESULT:
["> 35.9 µM", "> 100 µM", "> 100 µM", "> 10 µM", "> 100 µM"]

Hi there! I need TGI for each item below, if you can.
1. CC12NC(=C(C#N)C#N)C(C#N)=C3NC(N)=C(C#N)C(=C31)Oc1ccccc12 (stereo unspecified)
2. N#CCc1c(F)c(F)c(F)c(F)c1F

RESULT:
["> 100 µM", "> 100 µM"]

Lab note: measured TGI of "CC1=C(C(=O)Nc2cccc(Cl)c2)C(c2ccccc2O)C(C(=O)Nc2cccc(Cl)c2)=C(C)N1" was 70.7 µM

###

# System: OVCAR-3 ovarian
# assayExplanation: NCI tumour cell line growth inhibition, 48 h
measuredQuantity: TGI

Here CCOC(=O)C1(CC(=O)O)CCCC1=O (stereo unspecified) was tested on OVCAR-3 ovarian, and its TGI came to > 100 µM

The observed TGI for CCc1cccc(C(C)C)c1NC(=O)CC1Sc2ccccc2NC1=O (stereo unspecified) when tested with OVCAR-3 ovarian stands at > 100 µM

Here "O=C(Nc1ccccc1)c1cc2ccccc2c(N=Nc2cccc([N+](=O)[O-])c2)c1O" was tested on OVCAR-3 ovarian, and its TGI came to > 100 µM

Record for Cc1ccccc1NC(=O)CC1C(=O)Nc2ccccc2S1=O (stereo unspecified) under target or system OVCAR-3 ovarian: TGI reported as > 100 µM

# "COC(=O)[C@H](CNC(=O)/C=C/c1ccc(OC(C)=O)c(OC(C)=O)c1)NC(=O)/C=C/c1ccc(OC(C)=O)c(OC(C)=O)c1" with OVCAR-3 ovarian: TGI is > 100 µM

Measured TGI for this entry "CCCCCCCCCCC(=O)CCCCCCC(=O)O" on OVCAR-3 ovarian: 40 µM

Look at each compound and report its TGI.
1. Cc1ccc(S(=O)(=O)NC(=O)Nc2c(S(N)(=O)=O)cc(S(N)(=O)=O)c(Cl)c2Cl)cc1
2. CN1C(=O)c2ccccc2C(O)(c2ccccc2)C1(O)c1ccccc1 (stereo unspecified)
3. Cc1c(C)c2c(c(C)c1OC(=O)CCC(=O)[O-])CCC(C)(CCCCCCCCCCC[P+](c1ccccc1)(c1ccccc1)c1ccccc1)O2 (stereo unspecified)
4. Cc1cc(F)c(C(=O)Nc2cccc(-c3nncn3C(C)C)n2)cc1-n1cnc(C2CC2)c1
5. C/C=C1/CN2CCC34C(=C(C(=O)OC)C1CC23)Nc1ccc(O)cc14 (stereo unspecified)
6. O=c1cc(-c2ccc(Cl)cc2)[nH]c2ccccc12

RESULT:
> 100 µM
> 100 µM
0.542 µM
> 100 µM
> 100 µM
> 100 µM

Look up TGI for the entries below, preserving their order.
1. COc1ccccc1C1C2=C(COC2=O)Oc2cc3c(cc21)OCO3 (stereo unspecified)
2. O=C1C=CC2(CCCCCCC2=O)CC1 (stereo unspecified)
3. COc1ccc(C=Nc2ccc(-c3nc4ccccc4s3)cc2)cc1OC
4. O=C(Nc1ccccc1[N+](=O)[O-])/C(=N/Nc1cccc(Cl)c1)c1c(O)c2ccccc2oc1=O

RESULT:
1. 16.7 µM
2. > 100 µM
3. 51.9 µM
4. > 100 µM

###

# System: SF-268 CNS
# assayExplanation: NCI tumour cell line growth inhibition, 48 h
measuredQuantity: TGI

Previously resolved entries follow.
Item: "CN(C)c1ccc(/C=C/C(=O)c2cc(C(C)(C)C)c(O)c(C(C)(C)C)c2)cc1" | TGI: > 52.1 µM

Please fill in: TGI reported for "CC1=C(C(=O)Nc2cccc(Cl)c2)C(c2ccccc2O)C(C(=O)Nc2cccc(Cl)c2)=C(C)N1" = 37.9 µM

# return TGI for each item in the list
1. O=C1CC(c2ccc(Cl)cc2)C2(C(=O)NC(=S)NC2=O)C(c2ccc(Cl)cc2)C1 (centres undefined)
2. Cc1ccc(S(=O)(=O)NC(=O)Nc2c(S(N)(=O)=O)cc(S(N)(=O)=O)c(Cl)c2Cl)cc1

RESULT:
["31.9 µM", "> 100 µM"]

###

# Test system: SK-MEL-2 melanoma
# assayExplanation: NCI tumour cell line growth inhibition, 48 h
measuredQuantity: TGI

Quick request: TGI for each listed item, please.
1. NCCOc1ccc(/C(=C(/Cl)c2ccccc2)c2ccccc2)cc1
2. O=S(=O)(O)c1ccc2c(N=Nc3cccc4ccccc34)c(O)ccc2c1
3. O=C(NCCCCCCCCCCCCNC(=O)c1cnc2ccccc2n1)c1cnc2ccccc2n1
4. c1ccc(-c2csc3c2-n2cccc2C3N2CCCC2)cc1 (stereo not drawn)
5. N#C/C(=C\c1ccc(O)c(O)c1)c1c(C#N)c(N)nn1-c1ccccc1
6. C=CCn1c(-c2cc(C(C)(C)C)c(O)c(C(C)(C)C)c2)cs/c1=N\C(P(=O)(O)O)P(=O)(O)O

RESULT:
1. 29.1 µM
2. > 100 µM
3. > 100 µM
4. > 100 µM
5. 49.8 µM
6. > 100 µM

Provide each entry's TGI from the list below.
1. Cc1nc2cn3c(c2c(=O)[nH]1)CCCCC3
2. CC1=C(C(=O)Nc2cccc(Cl)c2)C(c2ccccc2O)C(C(=O)Nc2cccc(Cl)c2)=C(C)N1

RESULT:
1. > 100 µM
2. 32.2 µM
